System: p388 (murine leukemia)
Assay: In vitro anti-cancer activity, MTS growth inhibition assay, p388
Assay type: cell-based
Settings: Mus musculus, p388 cells, 72 hours
measured_property: IC50 (nM)
Write the answer as a number in nM, unit excluded.

CC(=O)O[C@H]1C(=O)[C@@]2(C)[C@H]([C@H](OC(=O)c3ccccc3)[C@]3(O)C[C@H](OC(=O)[C@H](O)[C@@H](NC(=O)c4ccccc4)c4ccccc4)C(C)=C1C3(C)C)[C@]1(OC(C)=O)CO[C@@H]1C[C@@H]2O [Taxol, reference compound] = 10

Consider the record given below.
Asked: Fill in IC50 for Cc1cc(NC(=O)C(=O)c2cc(Cc3ccc(C#N)cc3)n3ccccc23)sn1 [Compound (1)] tested with p388 (murine leukemia).
Given back: 10

###

Let's look at some compounds and their measured pIC50.
Tested on: U937 (human leukemia)
Test: In vitro anti-cancer activity, MTS growth inhibition assay, U-937
Assay type: cell-based
Details: U-937 cells, 72 hours
Units for pIC50: none; it is -log10 of a concentration expressed in mol/L.

Cc1cc(NC(=O)C(=O)c2cc(Cc3ccc(C#N)cc3)n3ccccc23)sn1 = 7.30

Consider the record given below.
Asked: State its pIC50 for this compound: CC(=O)O[C@H]1C(=O)[C@@]2(C)[C@H]([C@H](OC(=O)c3ccccc3)[C@]3(O)C[C@H](OC(=O)[C@H](O)[C@@H](NC(=O)c4ccccc4)c4ccccc4)C(C)=C1C3(C)C)[C@]1(OC(C)=O)CO[C@@H]1C[C@@H]2O [Taxol, reference compound]
Given back: 8.30

###

Let's look at some molecules and their measured IC50.
Test system: MES-SA (human uterine sarcoma)
Assay: In vitro anti-cancer activity, MTS growth inhibition assay, MES-SA
Assay type: cell-based
Conditions: MES-SA cells, 72 hours, MTS assay (Table 1), read-out: IC50
# answer = value followed by unit

Cc1cc(NC(=O)C(=O)c2cc(Cc3ccc(C#N)cc3)n3ccccc23)sn1 [Compound (1)] = 10 nM

Consider the record given below.
Asked: Fill in IC50 for CC(=O)O[C@H]1C(=O)[C@@]2(C)[C@H]([C@H](OC(=O)c3ccccc3)[C@]3(O)C[C@H](OC(=O)[C@H](O)[C@@H](NC(=O)c4ccccc4)c4ccccc4)C(C)=C1C3(C)C)[C@]1(OC(C)=O)CO[C@@H]1C[C@@H]2O [Taxol, reference compound] tested with MES-SA (human uterine sarcoma).
Given back: 5 nM

###

System: seven cancer cell lines from different tissue types
Assay: Text summary: in vitro activity over the seven cancer cell lines of Table 1
Type: cell-based
Settings: range over the seven cell lines of Table 1; read-out: IC50 against seven cancer cell lines
measured_property: IC50

Asked: State its IC50 for this compound: `Cc1cc(NC(=O)C(=O)c2cc(Cc3ccc(C#N)cc3)n3ccccc23)sn1`
Given back: 0.01 to 0.05 µM

###

Tested on: MES-SA/DX5 (multi-drug resistant human uterine sarcoma cell line)
Experiment: In vitro activity against multi-drug resistant cell line MES-SA/DX5
Assay type: cell-based
Details: MES-SA/DX5 MDR cells (Table 3, Example 12)
measured_property: IC50 (nM)
Write the answer as a number in nM, unit excluded.

Example entries begin here.
CC(=O)O[C@H]1C(=O)[C@@]2(C)[C@H]([C@H](OC(=O)c3ccccc3)[C@]3(O)C[C@H](OC(=O)[C@H](O)[C@@H](NC(=O)c4ccccc4)c4ccccc4)C(C)=C1C3(C)C)[C@]1(OC(C)=O)CO[C@@H]1C[C@@H]2O [Taxol, reference compound] = 5000
Cc1cc(NC(=O)C(=O)c2cc(Cc3ccc(C#N)cc3)n3cc(F)ccc23)sn1 = 50
Cc1cc(NC(=O)C(=O)c2cc(Cc3ccccc3)n3ccccc23)sn1 = 50
N#Cc1ccc(Cc2cc(C(=O)C(=O)Nc3ccc4ncccc4c3)c3ccccn23)cc1 = 100
Cc1cc(NC(=O)C(=O)c2cc(Cc3ccc(Cl)cc3)n3ccccc23)sn1 = 60
COc1ccc(Cc2cc(C(=O)C(=O)Nc3cc(C)ns3)c3ccccn23)cc1 = 100
O=C(Nc1ccc2ncccc2c1)C(=O)c1cc(Cc2ccc(Cl)cc2)n2ccccc12 = 100

Consider the record given below.
Asked: State its IC50 for this compound: `Cc1cc(NC(=O)C(=O)c2cc(Cc3ccc(F)cc3)n3ccccc23)sn1`
Given back: 50

Sourced from patent US20040214850A1
